- Tested on: A-375
- Method summary: Antiproliferative activity against human A375 cells at 0.02 ug/ml for 24 hrs by MTT assay
- Type: functional
- Run conditions: A-375, 24 h
Property: inhibition at 0.02 µg/mL; scope: individual compounds
Assay endpoint: inhibition at 0.02 µg/mL (%)

> print(dat)
                                    compound  system.name  assay.value
 1  CCc1ccc2nc(C(=O)Nc3c(F)cc(-c4cccc(F)c4)cc3F)c(C)c(C(=O)O)c2c1        A-375        -0.12
 2  Cc1c(C(=O)Nc2c(F)cc(-c3cccc(F)c3)cc2F)nc2ccc(OC(F)(F)F)cc2c1O        A-375        -0.35
 3  Cc1c(C(=O)Nc2ccc(-c3ccccc3)cc2)nc2ccccc2c1C(=O)O        A-375         0.12
 4  Cc1c(C(=O)Nc2ccc(-c3ccccc3)cc2)nc2ccccc2c1O        A-375         0.06
 5  CCc1ccc2nc(C(=O)Nc3c(F)cc(-c4cccc(F)c4)cc3F)c(C)c(O)c2c1        A-375        -0.12
 6  Cc1ccc2nc(C(=O)Nc3c(F)cc(-c4cccc(F)c4)cc3F)c(C)c(C(=O)O)c2c1        A-375         0.02
 7  COc1ccc2nc(C(=O)Nc3ccc(-c4ccccc4)cc3)c(C)c(C(=O)O)c2c1        A-375         0.68
 8  Cc1c(C(=O)Nc2c(F)cc(-c3cccc(F)c3)cc2F)nc2ccc(F)cc2c1C(=O)O        A-375        -0.22
 9  Cc1c(C(=O)Nc2c(F)cc(-c3cccc(F)c3)cc2F)nc2ccc(C(F)(F)F)cc2c1O        A-375         1.28
10  CCOc1ccc2nc(C(=O)Nc3c(F)cc(-c4cccc(F)c4)cc3F)c(C)c(C(=O)O)c2c1        A-375         1.02
11  COc1cccc2c1C(=O)c1c(O)c3c(c(O)c1C2=O)C[C@@](O)(C(=O)CO)C[C@@H]3O[C@H]1C[C@H](N)[C@H](O)[C@H](C)O1        A-375         30.2
12  COc1ccc2nc(C(=O)Nc3c(F)cc(-c4cccc(F)c4)cc3F)c(C)c(O)c2c1        A-375         2.13
13  Cc1c(C(=O)Nc2c(F)cc(-c3cccc(F)c3)cc2F)nc2ccc(OC(F)(F)F)cc2c1C(=O)O        A-375         0.95
14  CCOc1ccc2nc(C(=O)Nc3c(F)cc(-c4cccc(F)c4)cc3F)c(C)c(O)c2c1        A-375         0.68
15  COc1ccc2nc(C(=O)Nc3c(F)cc(-c4cccc(F)c4)cc3F)c(C)c(C(=O)O)c2c1        A-375         0.13
16  Cc1ccc2nc(C(=O)Nc3c(F)cc(-c4cccc(F)c4)cc3F)c(C)c(O)c2c1        A-375         0.38
17  Cc1c(-c2ccc(-c3ccccc3F)cc2)nc2ccc(F)cc2c1C(=O)O [BREQUINAR SODIUM]        A-375         1.02
18  COc1ccc2nc(C(=O)Nc3ccc(-c4ccccc4)cc3)c(C)c(O)c2c1        A-375         0.56
19  Cc1c(C(=O)Nc2c(F)cc(-c3cccc(F)c3)cc2F)nc2ccc(F)cc2c1O        A-375        -0.13
20  Cc1c(C(=O)Nc2c(F)cc(-c3cccc(F)c3)cc2F)nc2ccc(C(F)(F)F)cc2c1C(=O)O        A-375         0.37

---

- Method summary: Antiproliferative activity against human Hep3B cells at 0.02 ug/ml for 24 hrs by MTT assay
- Format: functional, Hep 3B2
Assay endpoint: inhibition at 0.02 µg/mL

> print(dat)
                                   molecule  assay.value
1  Cc1c(C(=O)Nc2c(F)cc(-c3cccc(F)c3)cc2F)nc2ccc(C(F)(F)F)cc2c1O        0.06%
2  COc1ccc2nc(C(=O)Nc3ccc(-c4ccccc4)cc3)c(C)c(O)c2c1        0.96%
3  Cc1c(C(=O)Nc2c(F)cc(-c3cccc(F)c3)cc2F)nc2ccc(OC(F)(F)F)cc2c1O        0.67%
4  COc1ccc2nc(C(=O)Nc3c(F)cc(-c4cccc(F)c4)cc3F)c(C)c(O)c2c1        0.87%
5  Cc1c(C(=O)Nc2c(F)cc(-c3cccc(F)c3)cc2F)nc2ccc(F)cc2c1C(=O)O       -0.13%
6  CCc1ccc2nc(C(=O)Nc3c(F)cc(-c4cccc(F)c4)cc3F)c(C)c(O)c2c1        2.05%
7  Cc1c(-c2ccc(-c3ccccc3F)cc2)nc2ccc(F)cc2c1C(=O)O [BREQUINAR SODIUM]        0.65%

---

- Test system: HEP-3B (human hepatoma)
- Method summary: Antiproliferative activity against human Hep3B cells for 24 hrs by MTT assay
pIC50: −log10 of the molar value.
Assay endpoint: pIC50

> print(dat)
                                    molecule  assay.endpoint  comparison.operator  assay.value
 1  Cc1c(C(=O)Nc2c(F)cc(-c3cccc(F)c3)cc2F)nc2ccc(F)cc2c1C(=O)O           pIC50                    =         4.09
 2  CCc1ccc2nc(C(=O)Nc3c(F)cc(-c4cccc(F)c4)cc3F)c(C)c(C(=O)O)c2c1           pIC50                    =         4.24
 3  CCOc1ccc2nc(C(=O)Nc3c(F)cc(-c4cccc(F)c4)cc3F)c(C)c(C(=O)O)c2c1           pIC50                    =         4.83
 4  COc1ccc2nc(C(=O)Nc3ccc(-c4ccccc4)cc3)c(C)c(O)c2c1           pIC50                    =         4.30
 5  Cc1ccc2nc(C(=O)Nc3c(F)cc(-c4cccc(F)c4)cc3F)c(C)c(C(=O)O)c2c1           pIC50                    =         4.58
 6  COc1ccc2nc(C(=O)Nc3ccc(-c4ccccc4)cc3)c(C)c(C(=O)O)c2c1           pIC50                    <         4.00
 7  Cc1c(C(=O)Nc2c(F)cc(-c3cccc(F)c3)cc2F)nc2ccc(C(F)(F)F)cc2c1O           pIC50                    =         4.90
 8  CCc1ccc2nc(C(=O)Nc3c(F)cc(-c4cccc(F)c4)cc3F)c(C)c(O)c2c1           pIC50                    =         5.09
 9  Cc1c(-c2ccc(-c3ccccc3F)cc2)nc2ccc(F)cc2c1C(=O)O [BREQUINAR SODIUM]           pIC50                    =         5.09
10  Cc1c(C(=O)Nc2c(F)cc(-c3cccc(F)c3)cc2F)nc2ccc(OC(F)(F)F)cc2c1C(=O)O           pIC50                    =         4.66
11  Cc1c(C(=O)Nc2c(F)cc(-c3cccc(F)c3)cc2F)nc2ccc(OC(F)(F)F)cc2c1O           pIC50                    =         4.42
12  Cc1c(C(=O)Nc2c(F)cc(-c3cccc(F)c3)cc2F)nc2ccc(C(F)(F)F)cc2c1C(=O)O           pIC50                    =         4.37
13  Cc1c(C(=O)Nc2c(F)cc(-c3cccc(F)c3)cc2F)nc2ccc(F)cc2c1O           pIC50                    =         4.19
14  COc1cccc2c1C(=O)c1c(O)c3c(c(O)c1C2=O)C[C@@](O)(C(=O)CO)C[C@@H]3O[C@H]1C[C@H](N)[C@H](O)[C@H](C)O1 [DOXORUBICIN]           pIC50                    =         5.20
15  CCOc1ccc2nc(C(=O)Nc3c(F)cc(-c4cccc(F)c4)cc3F)c(C)c(O)c2c1           pIC50                    <         4.00
16  Cc1c(C(=O)Nc2ccc(-c3ccccc3)cc2)nc2ccccc2c1O           pIC50                    =         4.12
17  Cc1ccc2nc(C(=O)Nc3c(F)cc(-c4cccc(F)c4)cc3F)c(C)c(O)c2c1           pIC50                    =         4.04
18  COc1ccc2nc(C(=O)Nc3c(F)cc(-c4cccc(F)c4)cc3F)c(C)c(C(=O)O)c2c1           pIC50                    <         4.00
19  Cc1c(C(=O)Nc2ccc(-c3ccccc3)cc2)nc2ccccc2c1C(=O)O           pIC50                    <         4.00
20  COc1ccc2nc(C(=O)Nc3c(F)cc(-c4cccc(F)c4)cc3F)c(C)c(O)c2c1           pIC50                    =         5.16

All values here come from ChEMBL document CHEMBL3286357.
